Origin of the recorded values: patent US20050209157A1

Test system: S. pyogenes ATCC19615
assay.comment: Antimicrobial assays II, NCCLS broth microdilution MIC
Type: cell-based, Streptococcus pyogenes
condition.summary: mean of three, in µg/mL
No end group written: not given here.
Exercise: for every item that follows, state its recorded S. pyogenes MIC.
Answers are plain numbers.

Please review the entries below; each comes with its answer.
[
  {
    "substance": "FAKLLALALKLKL-NH2 [P94]",
    "observed.value": 8
  },
  {
    "substance": "VAKKLAKLAKKLAKLAL-NH2 [P50]",
    "observed.value": 4
  }
]

Consider the record given below.
Q. Param item = KWKLFKKKTKLFKKFAKKLAKKL-NH2 [P73] ; retrieve measured S. pyogenes MIC.
A. 16

###

Exercise: for every item that follows, state its recorded viability at 0.5 µM.
assay.comment: Synergy of Shiva-1 and lysozyme, percent viability;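 also: Lysozyme at ten times the molar concentration of the peptide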
Type: cell-based, Staphylococcus intermedius
condition.summary: S. intermedius 20034
No end group written: not given here.
Answers are plain numbers, in %.

[
  {
    "substance": "MPKWKVFKKIEKVGRNIRNGIVKAGPAIAVLGEAKALG-NH2 (C-terminus assumed) [SB-37]",
    "unit": "%",
    "viability at 0.5 µM": 68
  }
]

Q. Param item = MPRWRLFRRIDRVGKQIKQGILRAGPAIALVGDARAVG [Shiva-1] ; retrieve measured viability at 0.5 µM.
A. 80

###

Exercise: for every item that follows, state its recorded paerug9027 (MIC).
Tested on: Pseudomonas aeruginosa ATCC 9027
assay.comment: Antimicrobial assay I, MIC by OD measurement
Type: cell-based
condition.summary: 37° C. for 24 hours, absorbance 620 nm
No end group written: not given here.
One number for each entry, in µg/mL.

Please review the entries below; each comes with its answer.
[
  {
    "substance": "FAKLWAKLAKKL-NH2 [P136]",
    "paerug9027 (MIC), µg/mL": 50
  },
  {
    "substance": "FAKLLAKLAKKGL-NH2 [P152]",
    "paerug9027 (MIC), µg/mL": 50
  },
  {
    "substance": "FAKLLAKLAKAKA-NH2 [P95]",
    "paerug9027 (MIC), µg/mL": 200
  }
]

Q. For Pseudomonas aeruginosa ATCC 9027, provide paerug9027 (MIC) of FALLKALKKAL-NH2 [P171, FALLKALKKAL-NH2] please.
A. 50

###

System: Escherichia coli ATCC 25922
assay.comment: Antimicrobial assay I, modified protocol (tryptic soy broth), MBC
condition.summary: minimum bactericidal concentration, Table 4
No end group written: not given here.
value.type: MBC E. coli A.25922 (mg/L)
Give bare numbers, in mg/L.

Please review the entries below; each comes with its answer.
[
  {
    "substance": "FALALKALKKLKKALKKAL-OH [27B]",
    "target.entity": "Escherichia coli ATCC 25922",
    "value.type": "MBC E. coli A.25922",
    "observed.value": 40
  },
  {
    "substance": "FAKLLALALKKAL-NH2 [compound 97]",
    "target.entity": "Escherichia coli ATCC 25922",
    "value.type": "MBC E. coli A.25922",
    "observed.value": 25
  },
  {
    "substance": "FAKFLAKFLKKAL-NH2 [compound 111]",
    "target.entity": "Escherichia coli ATCC 25922",
    "value.type": "MBC E. coli A.25922",
    "observed.value": 30
  },
  {
    "substance": "FAKKLAKKLAKLL-NH2 [compound 75]",
    "target.entity": "Escherichia coli ATCC 25922",
    "value.type": "MBC E. coli A.25922",
    "observed.value": 40
  },
  {
    "substance": "FALALKALKKL-NH2 [compound 165]",
    "target.entity": "Escherichia coli ATCC 25922",
    "value.type": "MBC E. coli A.25922",
    "observed.value": 10
  },
  {
    "substance": "VAKLLAKLAKKLL-NH2 [compound 48]",
    "target.entity": "Escherichia coli ATCC 25922",
    "value.type": "MBC E. coli A.25922",
    "observed.value": 8
  }
]

// each substance listed below needs its MBC E. coli A.25922
1. FAKLLAKALKKL-NH2 [compound 103]
2. FALALKLAKKAL-NH2 [compound 167]
3. KYKKALKKLAKLL-NH2 [compound 146]
4. FAKLLAKLAKKIL-NH2 [compound 125]

A.
1. 30
2. 25
3. 10
4. 40

// each substance listed below needs its MBC E. coli A.25922
1. FAKLLAKALKKLL-NH2 [compound 55]
2. FAKKLAKKLKKLAKKLAKKWKL-NH2 [compound 70]

A.
[4, 40]

// each substance listed below needs its MBC E. coli A.25922
1. FKLAFKLAKKAFL-NH2 [compound 122]
2. FALALKALKKAL-NH2 [compound 144]

A.
1: 30; 2: 10

###

Exercise: for every item that follows, state its recorded MIC E. coli UB1005.
System: E. coli UB1005
Assay type: cell-based, Escherichia coli
condition.summary: Table 12
No end group written: not given here.
Give bare numbers, in µg/mL.

Please review the entries below; each comes with its answer.
[
  {
    "substance": "FALALKALKKLAKKLKKLAKKAL-NH2 [P25 (10)]",
    "MIC E. coli UB1005, µg/mL": 8
  },
  {
    "substance": "FAKLLAKLAKKVL-NH2 [P124 (86)]",
    "MIC E. coli UB1005, µg/mL": 16
  },
  {
    "substance": "FAKLLAKLAKKLL-NH2 [P43 (25)]",
    "MIC E. coli UB1005, µg/mL": 8
  },
  {
    "substance": "FAKKLAKKLL-NH2 [P59 (39)]",
    "MIC E. coli UB1005, µg/mL": 8
  },
  {
    "substance": "FALLKALLKKAL-NH2 [P177 (138)]",
    "MIC E. coli UB1005, µg/mL": 8
  },
  {
    "substance": "FALKALKKLKKALKKAL-NH2 [P153 (115)]",
    "MIC E. coli UB1005, µg/mL": 8
  }
]

Q. Param item = KYKKALKKLAKLL-NH2 [P146 (108)] ; retrieve measured MIC E. coli UB1005.
A. 2

###

assay.comment: in vitro
condition.summary: human, WI38 normal lung fibroblast cells, LD50 WI38, WI38 normal lung fibroblast line, MTT, 24 hours with peptide
No end group written: not given here.
value.type: CC50 at 24 h (µg/mL)
Answers are plain numbers, in µg/mL.

Please review the entries below; each comes with its answer.
[
  {
    "substance": "FALALKLKKL-NH2 [P181]",
    "value.type": "CC50 at 24 h",
    "observed.value": 500
  },
  {
    "substance": "FALALKALKKAL-NH2 [P144, FALALKALKKAL-NH2]",
    "value.type": "CC50 at 24 h",
    "observed.value": 750
  },
  {
    "substance": "FAKKLAKKLKKLAKKLAK-NH2 [Shiva 10(1-18)AM]",
    "value.type": "CC50 at 24 h",
    "observed.value": 101
  }
]

// each substance listed below needs its CC50 at 24 h
1. FAKLLAKLAKAKL-NH2 [P65]
2. KWKLAKKALALL-NH2 [P142]
3. FAKKLAKKLKKLAKLALAK-NH2 [P41]
4. FAKKLAKLALKLAKL-NH2 [P44]
5. FAKLLAKALKKL-NH2 [P103]
6. KYKKALKKLAKLL-NH2 [P146]
7. FAKKLAKKLAKAAL-NH2 [P76, FAKKLAKKLAKAAL-NH2]

A.
[320, 73, 175, 36, 26, 270, 445]

// each substance listed below needs its CC50 at 24 h
1. FALALKALKKLLKKLKKLAKKAL-NH2 [P24]
2. FAKLLAKLAKLKL-NH2 [P66]
3. FALLKALKKAL-NH2 [P171, FALLKALKKAL-NH2]

A.
55
240
615

###

assay.comment: in vitro
condition.summary: human, WI38 normal lung fibroblast cells, WI-38 LD50, Table 26, valine substitution
No end group written: not given here.
The threshold is 80 µg/mL. Values of CC50 at 24 h beneath it are tagged rule met; values meeting or exceeding it are tagged rule not met.

[
  {
    "substance": "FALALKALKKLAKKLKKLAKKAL-NH2 [compound 25]",
    "class": "rule met"
  }
]

Q. Lab note: CC50 at 24 h threshold 80 µg/mL. Does this substance come in strictly under it? FALALKALKKL-NH2 [compound 165]
A. rule not met

Q. Record: FAKLLAKLAKKLL-NH2 [compound 43]
A. rule met

Q. Record: VALALKALKKLAKKLKKLAKKAL-NH2 [compound 509]
A. rule not met

Q. Record: VAKLLAKLAKKVL-NH2 [compound 154]
A. rule not met

Q. Record: FAKLLAKLAKKVL-NH2 [compound 124]
A. rule met

Q. Record: VAKLLAKALKKLL-NH2 [compound 506]
A. rule met

Q. Record: VAKKFAKKFKKFAKKFAKFAFAF-NH2 [compound 503]
A. rule not met

Q. Record: FAKKLAKLAKKLLAL-NH2 [compound 38]
A. rule not met

Q. Record: VAKKLAKLAKKLLAL-NH2 [compound 505]
A. rule not met

Q. Record: FAKFLAKFLKKAL-NH2 [compound 111]
A. rule met

Q. Record: VAKLLAKLAKKLL-NH2 [compound 48]
A. rule not met

Q. Record: VALALKALKKLLKKLKKLAKKAL-NH2 [compound 510]
A. rule met

Q. Record: VALALKALKKALKKLKKALKKAL-NH2 [compound 30]
A. rule not met

Q. Record: VAKALKALLKALKAL-NH2 [compound 501]
A. rule met

Q. Record: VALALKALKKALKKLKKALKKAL-OH [compound 508]
A. rule not met
